# target-of-assay: D(4) dopamine receptor (Homo sapiens, UniProt P21917)
# Sequence (P21917 whole entry): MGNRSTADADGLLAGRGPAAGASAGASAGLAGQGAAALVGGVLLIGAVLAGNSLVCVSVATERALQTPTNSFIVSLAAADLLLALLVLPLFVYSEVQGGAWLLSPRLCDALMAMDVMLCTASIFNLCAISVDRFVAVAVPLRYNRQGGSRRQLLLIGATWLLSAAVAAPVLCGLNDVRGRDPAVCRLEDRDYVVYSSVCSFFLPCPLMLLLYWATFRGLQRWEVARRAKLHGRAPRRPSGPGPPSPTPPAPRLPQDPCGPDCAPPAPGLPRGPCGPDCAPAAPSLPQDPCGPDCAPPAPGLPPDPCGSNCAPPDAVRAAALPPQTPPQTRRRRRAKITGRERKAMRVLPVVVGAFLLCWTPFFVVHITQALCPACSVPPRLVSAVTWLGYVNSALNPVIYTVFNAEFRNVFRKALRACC
# experiment: In vitro binding affinity to displace [3H]-spiperone from the cloned human dopamine receptor D4 in CHO cells
# Assay type: cell-based
endpoint-label: pKi
Please express pKi as -log10 of the molar concentration.

Could you tell me which pKi is on file for c1ccc(C2=NCC[C@@H](CN3CCN(c4ccccc4)CC3)N2)cc1 ?
6.51
